Entries and their pIC50 values follow.
Test system: Plasmodium falciparum
Test: Inhibitory concentration against Plasmodium falciparum in FACS
Assay type: functional, organism-based
Remember the convention: pIC50 equals -log10 of concentration in molar.

Examples with answers:
Cc1ccc(/C=C/C(=O)c2cccc(NC(=O)Nc3ccccc3)c2)cc1; 5.56
O=C(Nc1ccccc1)Nc1cccc(C(=O)/C=C/c2ccc(Br)cc2)c1; 5.68
CC(=O)N[C@@H](CC(C)C)C(=O)N[C@@H](CC(C)C)C(=O)N[C@H](C=O)CCCNC(=N)N; 5.20
O=C(Nc1ccc(Cl)cc1)Nc1ccc(C(=O)/C=C/c2ccc3c(c2)OCO3)cc1; 5.00

# input compound: `O=C(Nc1ccccc1)Nc1cccc(C(=O)/C=C/c2ccc(Cl)cc2Cl)c1` ; wanted: its pIC50
5.67
